# tested target: HRgpA-6H (Porphyromonas gingivalis) (UniProt P28784)
# experiment: ELISA, FASEBA Fab supernatant on coated HRgpA-6H
Binary label based on OD450 nm with cut-off 0.8: below gives met, not below gives not met.

INPUT: Find out if reported OD450 nm for KB001 mouse Fab variant VL S95Q (Fab, V domains shown) VH: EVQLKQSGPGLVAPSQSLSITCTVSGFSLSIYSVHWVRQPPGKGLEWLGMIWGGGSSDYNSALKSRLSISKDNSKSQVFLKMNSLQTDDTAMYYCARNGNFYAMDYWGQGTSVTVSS VL: QIVLTQSPAIMSASLGERVTMTCTASSSVSSSFLHWYQQKPGSSPQLWIYSTSNLASGVPARFSGSGSGTSYSLTISSMEAEDAATYYCHQYHHQPYIYTFGGGTKLEIK is less than 0.8
OUTPUT: not met

INPUT: Check if OD450 nm falls below 0.8 for KB001 mouse Fab variant VL Y97S (Fab, V domains shown) VH: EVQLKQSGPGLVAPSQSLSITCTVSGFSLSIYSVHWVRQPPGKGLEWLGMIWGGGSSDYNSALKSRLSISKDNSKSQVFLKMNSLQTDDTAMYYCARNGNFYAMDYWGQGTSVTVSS VL: QIVLTQSPAIMSASLGERVTMTCTASSSVSSSFLHWYQQKPGSSPQLWIYSTSNLASGVPARFSGSGSGTSYSLTISSMEAEDAATYYCHQYHHSPSIYTFGGGTKLEIK .
OUTPUT: met

INPUT: Given the entry KB001 mouse Fab variant VL S57Q (Fab, V domains shown) VH: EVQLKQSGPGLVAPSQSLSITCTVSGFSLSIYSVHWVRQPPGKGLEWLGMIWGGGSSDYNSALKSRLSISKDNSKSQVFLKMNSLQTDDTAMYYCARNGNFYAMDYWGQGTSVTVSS VL: QIVLTQSPAIMSASLGERVTMTCTASSSVSSSFLHWYQQKPGSSPQLWIYSTSNLAQGVPARFSGSGSGTSYSLTISSMEAEDAATYYCHQYHHSPYIYTFGGGTKLEIK , would its reported OD450 nm be below 0.8?
OUTPUT: met

INPUT: Is the reported OD450 nm for KB001 mouse Fab variant VL Y97R (Fab, V domains shown) VH: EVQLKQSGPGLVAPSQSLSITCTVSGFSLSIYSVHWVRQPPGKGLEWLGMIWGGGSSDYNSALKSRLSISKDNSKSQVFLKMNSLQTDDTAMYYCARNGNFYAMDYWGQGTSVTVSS VL: QIVLTQSPAIMSASLGERVTMTCTASSSVSSSFLHWYQQKPGSSPQLWIYSTSNLASGVPARFSGSGSGTSYSLTISSMEAEDAATYYCHQYHHSPRIYTFGGGTKLEIK strictly below 0.8?
OUTPUT: met
